Data origin, for the record: ChEMBL document CHEMBL1687926

protocol_notes: Cmax in CD-1 mouse brain at 50 mg/kg, ip by LC/MS/MS analysis
Assay type: ADME, organism-based
Set-up: dose 50 mg/kg, route intraperitoneal
attribute_measured: Cmax (ng/mL)
Report the value in ng/mL with no unit label.

Measured Cmax of CCc1c2c(nc3ccccc13)-c1c(N)c3c(c(=O)n1C2)COC(=O)[C@]3(O)CC : 300

The compound identified as CC[C@@]1(O)C(=O)OCc2c1c(N)c1n(c2=O)Cc2cc3ccccc3nc2-1 registered its Cmax at 600

* * *

protocol_notes: Half life in CD-1 mouse plasma at 50 mg/kg, ip by LC/MS/MS analysis
Type: ADME, organism-based
Parameters: dose 50 mg/kg, route intraperitoneal
attribute_measured: half-life (h)
Number only, in h; omit the unit.

The value of half-life measured for the compound CCc1c2c(nc3ccccc13)-c1c(N)c3c(c(=O)n1C2)COC(=O)[C@]3(O)CC turned out to be 4.17

Record summary for CC[C@@]1(O)C(=O)OCc2c1c(N)c1n(c2=O)Cc2cc3ccccc3nc2-1 : reported half-life = 4.17
